- experimentalDetails: NS1 protein of Zika virus - qHTS assay to identify small molecule inhibitors in human HEK 293 cells (AID 1347053); also: nearly all actives have a fitted effect of over 55% in size
- experimentalSetup: HEK293 ZIKV MR766 infection, NS1 TR-FRET, 24 h; series mostly up to 46.1 µM
- From the text: National Center for Advancing Translational Sciences [NCATS] Johns Hopkins University School of Medicine The non-structural 1 (NS1) protein of zika virus is known to associate with the viral replication complex. This cell-based TR-FRET ZIKV NS-1 assay measures the increased NS-1 protein in human HEK 293 cells after a 24-hour Zika virus infection by a TR-FRET assay readout. […]
Inconclusive results are not listed. Activity calls are given as the source filed them. Calls follow the shape of the dose curve; as a rule, active = well fitted inhibition curve with a large enough effect; inconclusive = small, poorly fitted or top-dose-only effect; inactive = no such curve, though single readings can be large or run the other way.
Possible outcomes: active, inactive

* Nc1ncnc2c1ncn2[C@@H]1O[C@H](CO)C[C@@H]1O | inactive
* COc1ncc(-c2ccc3nccc(-c4ccnnc4)c3c2)cc1NS(=O)(=O)c1ccc(F)cc1F | active
* C[C@]12CC[C@@H]3c4ccc(O)cc4CC[C@H]3[C@H]1C[C@@H](O)[C@H]2O | inactive
* O=C1NC(=O)C(=Cc2ccc(-c3ccc(F)cc3)o2)S1 | inactive
* CNC1CCC(N(Cc2cccc(-c3ccncc3)c2)C(=O)c2sc3c(F)ccc(F)c3c2Cl)CC1 (stereo not given) | active
* O=C(O)c1c(Cl)c(Cl)c(Cl)c(Cl)c1-c1c2cc(I)c(=O)c(I)c-2oc2c(I)c(O)c(I)cc12 | inactive
* Cn1cc(C=C2C(=O)Nc3cccnc32)c2ccccc21 | inactive
* CC(C)=CC[C@@H](O)C1=CC(=O)c2c(O)ccc(O)c2C1=O | inactive
* CO[C@H]1C[C@@H]2CC[C@@H](C)[C@@](O)(O2)C(=O)C(=O)N2CCCC[C@@H]2C(=O)O[C@H]([C@H](C)C[C@@H]2CC[C@H](OP(C)(C)=O)[C@H](OC)C2)CC(=O)[C@H](C)C=C(C)[C@@H](O)[C@@H](OC)C(=O)[C@H](C)C[C@H](C)C=CC=CC=C1C | inactive
* NC(=O)c1ccc2nc(-c3ccc(Oc4ccc(Cl)cc4)cc3)[nH]c2c1 | inactive

Source of measurements: PubChem BioAssay (NCATS)
